# Measurement Target: CFTR (Homo sapiens, UniProt P13569)
# Sequence (P13569 with tags, fused parts or gaps DEL508-508): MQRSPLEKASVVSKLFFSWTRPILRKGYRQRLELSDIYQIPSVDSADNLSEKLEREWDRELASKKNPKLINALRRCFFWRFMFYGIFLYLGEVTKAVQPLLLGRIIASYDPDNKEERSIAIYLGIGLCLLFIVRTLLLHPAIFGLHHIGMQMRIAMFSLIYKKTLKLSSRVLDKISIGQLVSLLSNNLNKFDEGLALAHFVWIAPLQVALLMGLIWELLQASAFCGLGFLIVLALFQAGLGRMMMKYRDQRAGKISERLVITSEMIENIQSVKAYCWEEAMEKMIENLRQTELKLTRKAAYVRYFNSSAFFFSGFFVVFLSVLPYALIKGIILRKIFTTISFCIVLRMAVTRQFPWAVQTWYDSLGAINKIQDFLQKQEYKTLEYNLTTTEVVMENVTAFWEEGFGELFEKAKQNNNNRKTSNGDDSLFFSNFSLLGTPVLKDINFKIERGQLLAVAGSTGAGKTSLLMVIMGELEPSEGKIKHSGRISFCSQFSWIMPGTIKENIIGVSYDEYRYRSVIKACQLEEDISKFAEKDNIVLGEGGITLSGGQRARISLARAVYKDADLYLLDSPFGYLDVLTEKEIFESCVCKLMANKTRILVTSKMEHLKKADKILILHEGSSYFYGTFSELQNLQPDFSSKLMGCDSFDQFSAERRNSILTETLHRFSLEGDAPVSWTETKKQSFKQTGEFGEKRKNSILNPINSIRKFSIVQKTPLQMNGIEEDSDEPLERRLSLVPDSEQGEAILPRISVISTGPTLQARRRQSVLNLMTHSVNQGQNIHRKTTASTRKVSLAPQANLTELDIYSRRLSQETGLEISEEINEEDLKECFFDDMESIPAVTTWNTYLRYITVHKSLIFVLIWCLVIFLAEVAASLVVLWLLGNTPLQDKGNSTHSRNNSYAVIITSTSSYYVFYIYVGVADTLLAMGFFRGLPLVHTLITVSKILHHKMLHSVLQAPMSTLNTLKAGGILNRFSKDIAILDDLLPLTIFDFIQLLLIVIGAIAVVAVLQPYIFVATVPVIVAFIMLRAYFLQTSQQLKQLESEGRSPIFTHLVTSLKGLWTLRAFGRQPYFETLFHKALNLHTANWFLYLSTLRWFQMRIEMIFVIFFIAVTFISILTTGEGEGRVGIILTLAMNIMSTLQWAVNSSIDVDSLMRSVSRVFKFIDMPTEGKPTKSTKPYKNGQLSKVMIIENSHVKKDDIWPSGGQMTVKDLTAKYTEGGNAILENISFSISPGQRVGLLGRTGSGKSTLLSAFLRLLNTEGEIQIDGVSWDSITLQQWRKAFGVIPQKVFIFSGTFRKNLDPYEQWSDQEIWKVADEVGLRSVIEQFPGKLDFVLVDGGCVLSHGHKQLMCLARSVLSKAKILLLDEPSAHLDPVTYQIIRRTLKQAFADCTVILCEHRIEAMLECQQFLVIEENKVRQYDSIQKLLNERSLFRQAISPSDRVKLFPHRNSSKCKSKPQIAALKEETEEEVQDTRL
# Protocol: Membrane potential dye, Enteroid Assay A
# Type: cell-based
# Study Conditions: Table 7; chloride transport as % of triple combination control (Enteroid Assay A)
Test Readout: Ent. A Max Activity

See these solved cases before continuing.
Cc1cccc(C)c1-c1cc2nc(n1)NS(=O)(=O)c1cccc(c1)C(=O)N(Cc1ccc(N3CCN(C)CC3)nc1)[C@H](CC1(C(F)(F)F)CC1)CO2 [Compound 684]	+++ (+++ is >60%)
COC1CCC(CC(=O)N2Cc3cccc(c3)S(=O)(=O)Nc3nc(cc(-c4c(C)cccc4C)n3)OC[C@H]2CC(C)C)CC1 (stereo partly drawn) [Compound 1045]	+ (+ is <30%)
Cc1cccc(C)c1-c1cc2nc(n1)NS(=O)(=O)c1cccc(c1)CN(C(=O)CC(C)C)[C@H](CC(C)C)CO2 [Compound 1049]	+ (+ is <30%)
Cc1cccc(C)c1-c1cc2nc(n1)NS(=O)(=O)c1cccc(c1)C(=O)N(CCC(C)(C)C)[C@H](C)CO2 [Compound 987]	+ (+ is <30%)

Lab note: next compound to report on.
Name the reported Ent. A Max Activity value associated with the compound Cc1cccc(C)c1-c1cc2nc(n1)NS(=O)(=O)c1cccc(c1)C(=O)N(CC1CC13CCOCC3)[C@H](CC(C)C)CO2 (stereo partly drawn) [Compound 416]
+++ (+++ is >60%)

---

Let's look at some compounds and their measured pEC50.
# Measurement Target: CFTR (Homo sapiens, UniProt P13569, DEL508-508)
# Construct: endogenous in cells; host or cells: primary human bronchial epithelial cells from CF subjects (F508del/MF-HBE), differentiated at air-liquid interface
# Sequence (P13569 with tags, fused parts or gaps DEL508-508): as above
# Protocol: HBE assay: Ussing chamber assay of CFTR-mediated short-circuit currents
# Assay type: cell-based
# Study Conditions: Table 10; read-out: HBE EC50
pEC50: −log10 of the molar value.

Would you please look over these solved cases?
CNC(=O)COc1ccccc1CN1C(=O)c2cccc(c2)S(=O)(=O)Nc2nc(cc(-c3c(C)cccc3C)n2)OC[C@H]1CC(C)(C)C	> 6.00
Cc1cc(N2CCOCC2)cnc1CN1C(=O)c2cccc(c2)S(=O)(=O)Nc2nc(cc(-c3c(C)cccc3C)n2)OC[C@H]1CC(C)(C)C	> 6.00
Cc1cccc(C)c1-c1cc2nc(n1)NS(=O)(=O)c1cccc(c1)C(=O)N(CC1CCN(c3ccccn3)CC1)[C@H](CC(C)(C)C)CO2	> 6.00
COCCN(C)c1cccc(CN2C(=O)c3cccc(c3)S(=O)(=O)Nc3nc(cc(-c4c(C)cccc4C)n3)OC[C@H]2CC(C)(C)C)n1	> 6.00
Cc1cccc(C)c1-c1cc2nc(n1)NS(=O)(=O)c1cccc(c1)C(=O)N(Cc1ccc(N(C)CC(C)(C)C)cn1)[C@H](CC(C)(C)C)CO2	5.52 to 6.00

Can you look up pEC50 on CFTR (Homo sapiens, UniProt P13569, DEL508-508) for `Cc1cccc(C)c1-c1cc2nc(n1)NS(=O)(=O)c1cccc(c1)C(=O)N(Cc1ccc(-c3cncnc3)cc1)[C@H](CC(C)(C)C)CO2` ?
> 6.00

---

# Measurement Target: CFTR (Homo sapiens, UniProt P13569, DEL508-508)
# Construct: endogenous in cells; host or cells: primary human bronchial epithelial cells from CF subjects (F508del/MF-HBE), differentiated at air-liquid interface
# Protocol: HBE2 assay: Ussing chamber assay of CFTR-mediated short-circuit currents
# Assay type: cell-based
# Study Conditions: 3 μM corrector; F508del/MF-HBE cells; with 44 nM potentiator, 18-24 hours, 20% human serum
Test Readout: HBE2 Activity at 3 μM (%)

Example entries and their recorded answers appear below.
Cc1cccc(C)c1-c1cc2nc(n1)NS(=O)(=O)c1cccc(c1)C(=O)N(Cc1cncc(N3CCC[C@H]3C)n1)[C@H](CC1CCCCC1)CO2	+++ (+++ is >60+)
Cc1cccc(C)c1-c1cc2nc(n1)NS(=O)(=O)c1cccc(c1)C(=O)N(Cc1cncc(N3CCC(C)(C)[C@H]3C)n1)[C@H](CC(C)(C)C)CO2 (stereo in doubt)	+++ (+++ is >60+)
CCN(c1cncc(CN2C(=O)c3cccc(c3)S(=O)(=O)Nc3nc(cc(-c4c(C)cccc4C)n3)OC[C@H]2COC2CC2)n1)C1CCC1	+++ (+++ is >60+)
Cc1cccc(C)c1-c1cc2nc(n1)NS(=O)(=O)c1cccc(c1)C(=O)N(Cc1cnc3cc(C(C)C)n(C)c3n1)[C@H](CCC(C)C)CO2	+++ (+++ is >60+)

HBE2 Activity at 3 μM (%) for `Cc1cccc(C)c1-c1cc2nc(n1)NS(=O)(=O)c1cccc(c1)C(=O)N(Cc1cncc(N(C)C(C)C)n1)[C@H](CC1(C)CCC1)CO2` ?
+++ (+++ is >60+)

Which value of HBE2 Activity at 3 μM (%) has been reported for `Cc1cccc(C)c1-c1cc2nc(n1)NS(=O)(=O)c1cccc(c1)C(=O)N(Cc1cncc(N(C)C(C)C)n1)[C@H](CCC(C)C)CO2` in the records?
+++ (+++ is >60+)

---

# Measurement Target: CFTR (Homo sapiens, UniProt P13569, DEL508-508)
# Construct: endogenous in cells; host or cells: primary human bronchial epithelial cells from CF subjects (F508del/MF-HBE), differentiated at air-liquid interface
# Protocol: HBE2 assay: Ussing chamber assay of CFTR-mediated short-circuit currents
# Type: cell-based
# Study Conditions: 3 μM corrector; F508del/MF-HBE cells; with 44 nM potentiator, 18-24 hours, 20% human serum
Test Readout: HBE2 Activity at 3 μM (%)

Cc1cccc(C)c1-c1cc2nc(n1)NS(=O)(=O)c1cccc(c1)C(=O)N(Cc1cncc(N3CCCC[C@H]3C)n1)[C@H](CC1CCCC1)CO2 [Compound 1847]	+++ (+++ is >60+)
Cc1cccc(C)c1-c1cc2nc(n1)NS(=O)(=O)c1cccc(c1)C(=O)N(Cc1cncc(N(C)C3CCC3)n1)[C@@H]1CCN(C3CC4(CC4)C3)C[C@H]1O2 [Compound 1767]	+++ (+++ is >60+)
Cc1cccc(C)c1-c1cc2nc(n1)NS(=O)(=O)c1cccc(c1)C(=O)N(Cc1cncc(N3CCC[C@@H]3C3CC3)n1)[C@H](COC1CC1)CO2 (stereo in doubt) [Compound 1891]	+++ (+++ is >60+)

---

# Measurement Target: CFTR (Homo sapiens)
# Protocol: Membrane potential dye, Enteroid Assay A
# Assay type: cell-based
# Study Conditions: Table 6; chloride transport as % of triple combination control (Enteroid Assay A)
# Description: Base medium (ADF+++) consisted of Advanced DMEM/Ham's F12, 2 mM Glutamax, 10 mM HEPES, […] penicillin/streptomycin. […] Enteroid cells were incubated with test compound in IEMM for 18-24 hours at 37° C., 95% humidity and 5% CO2. […] Chloride transport was initiated by addition of Chloride Free Dye Stimulation Solution and the fluorescence signal was read for 15 min. […]
Test Readout: Ent. A Max Activity

Some solved cases for reference:
CNC(=O)c1ccc(CN2C(=O)c3cccc(c3)S(=O)(=O)Nc3nc(cc(-c4c(C)cccc4C)n3)OC[C@H]2CC(C)C)cc1 [Compound 419]	+++ (+++ is >60%)
Cc1cccc(C)c1-c1cc2nc(n1)NS(=O)(=O)c1cccc(c1)C(=O)N(Cc1ccc(C#N)cc1)[C@H](CC(C)C)CO2 [Compound 78]	+++ (+++ is >60%)
Cc1cccc(C)c1-c1cc2nc(n1)NS(=O)(=O)c1cccc(c1)C(=O)N(Cc1cnc3ccccn13)[C@H](CC(C)C)CO2 [Compound 368]	+++ (+++ is >60%)
Cc1cccc(C)c1-c1cc2nc(n1)NS(=O)(=O)c1cccc(c1)C(=O)N(Cc1ccccc1)[C@H](CCC1(C(F)(F)F)CC1)CO2 [Compound 853]	++ (++ is 30-60%)
Cc1cccc(C)c1-c1cc2nc(n1)NS(=O)(=O)c1cccc(c1)C(=O)N(Cc1ccccc1)CC(c1ccccc1)O2 (stereo in doubt) [Compound 18]	+++ (+++ is >60%)
Cc1cccc(C)c1-c1cc2nc(n1)NS(=O)(=O)c1cccc(c1)C(=O)N(C)CC(c1ccc(C(C)(C)C)cn1)O2 (stereo not shown) [Compound 101]	+++ (+++ is >60%)
Cc1cccc(C)c1-c1cc2nc(n1)NS(=O)(=O)c1cccc(c1)CN(CCC(C)(C)C)[C@H](CC(C)C)CO2 [Compound 1043]	+++ (+++ is >60%)
Cc1cccc(C)c1-c1cc2nc(n1)NS(=O)(=O)c1cccc(c1)C(=O)N(Cc1ccc(C(C)(C)C)cc1)[C@H](CC(C)C)CO2 [Compound 425]	+++ (+++ is >60%)
Cc1cccc(C)c1-c1cc2nc(n1)NS(=O)(=O)c1cccc(c1)C(=O)N(CCC(C)C)[C@H](CCC1(C(F)(F)F)CC1)CO2 [Compound 850]	+++ (+++ is >60%)
Cc1cccc(C)c1-c1cc2nc(n1)NS(=O)(=O)c1cccc(c1)CN(Cc1ccccc1)[C@H](CC(C)C)CO2 [Compound 1044]	++ (++ is 30-60%)

Fill in the blank: the reported Ent. A Max Activity of Cc1cccc(C)c1-c1cc2nc(n1)NS(=O)(=O)c1cccc(c1)C(=O)N(Cc1ccc(C3=CCN(C)CC3)cc1)[C@H](CC(C)C)CO2 [Compound 86] is ____.
+++ (+++ is >60%)

Form field: reported Ent. A Max Activity of Cc1cccc(C)c1-c1cc2nc(n1)NS(=O)(=O)c1cccc(c1)NC(=O)CN(C(=O)OC(C)(C)C)CCO2 [Compound 516]
+++ (+++ is >60%)
